Target: VEGF-R2 (Rattus norvegicus)
Construct: polyhistidine (N)
Sequence (O08775 786-1343): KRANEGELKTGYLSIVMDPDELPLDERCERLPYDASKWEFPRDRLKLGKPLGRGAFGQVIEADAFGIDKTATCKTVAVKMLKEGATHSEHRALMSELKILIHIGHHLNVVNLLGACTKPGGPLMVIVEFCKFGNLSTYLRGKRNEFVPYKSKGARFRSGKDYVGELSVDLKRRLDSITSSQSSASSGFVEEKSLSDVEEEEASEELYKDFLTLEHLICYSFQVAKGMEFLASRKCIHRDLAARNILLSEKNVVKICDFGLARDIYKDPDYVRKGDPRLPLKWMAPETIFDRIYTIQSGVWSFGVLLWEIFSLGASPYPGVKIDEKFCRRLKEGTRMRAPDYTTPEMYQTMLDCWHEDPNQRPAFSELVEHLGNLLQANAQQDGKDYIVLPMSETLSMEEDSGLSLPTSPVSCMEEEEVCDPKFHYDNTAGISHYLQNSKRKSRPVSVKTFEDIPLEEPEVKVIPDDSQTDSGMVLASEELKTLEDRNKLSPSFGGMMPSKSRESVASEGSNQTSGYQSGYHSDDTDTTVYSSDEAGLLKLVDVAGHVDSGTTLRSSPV
Assay: VEGF-R2 Screening Assay
Type: biochemical
Conditions: 33P-γ-ATP incorporation, 10 μM ATP
measurement name: IC50 (µM)
Provide the reading as a plain figure in µM.

Consider the reported IC50 for these compounds:
Reported IC50 ( CNCCc1ccc(Nc2nccc(-c3c[nH]c4ncccc34)n2)c(Cl)c1 [Cpd 53] ) = 1.31

Measured IC50, Cc1cc(CCN2CCCCC2)ccc1Nc1nccc(-c2c[nH]c3ncccc23)n1 [Cpd 50] : 0.959

// IC50 value for OCCc1ccc(Nc2nccc(-c3c[nH]c4ncccc34)n2)cc1 [Cpd 1] : 0.087

Recorded IC50 (compound Cc1cc(CCN(C)C)ccc1Nc1nccc(-c2c[nH]c3ncccc23)n1 [Cpd 46] ): 0.341

Measured IC50, CCNCCc1ccc(Nc2nccc(-c3c[nH]c4ncccc34)n2)cc1 [Cpd 26] : 0.094

Moving on to the next compound.
Reported IC50 for NC1CCC(Nc2nccc(-c3c[nH]c4ncccc34)n2)CC1 (mixture of isomers) [Cpd 43] was 2.78

###

Tested on: A375 malignant melanoma
Assay: Inhibition of cell proliferation (14C-thymidine incorporation), A375
Assay type: cell-based, human
Conditions: Homo sapiens, A-375
# if measured IC50 < 0.1 µM: Met  # else: Not met

Does `CN(C)c1ccc(Nc2nccc(-c3c[nH]c4ncccc34)n2)cc1` have IC50 strictly under 0.1 µM? Met

***
Please state whether IC50 is below 0.1 µM for `CNCCc1ccc(Nc2nccc(-c3c[nH]c4ncccc34)n2)cc1` Met

Hello, is IC50 of the following compound strictly smaller than 0.1 µM? `Cc1cccc(C)c1Nc1nccc(-c2c[nH]c3ncccc23)n1` Met

# TODO verify IC50 < 0.1 µM strictly for this compound: `CNCCOc1ccc(Nc2nccc(-c3c[nH]c4ncccc34)n2)c(C)c1` Not met

A record lists `Nc1ccc(Nc2nccc(-c3c[nH]c4ncccc34)n2)cc1` . Is its IC50 below 0.1 µM? Not met

Determine whether this compound shows IC50 lower than 0.1 µM (ties excluded): `Cc1cc(CCN2CCOCC2)ccc1Nc1nccc(-c2c[nH]c3ncccc23)n1` Met

Determine whether this compound shows IC50 lower than 0.1 µM (ties excluded): `Clc1cc(CCN2CCOCC2)ccc1Nc1nccc(-c2c[nH]c3ncccc23)n1` Not met

State whether 0.1 µM exceeds IC50 recorded for `c1cnc2[nH]cc(-c3ccnc(Nc4ccc(CCN5CCCC5)cc4)n3)c2c1` . Met

Is IC50 strictly under 0.1 µM for the entry `c1cnc2[nH]cc(-c3ccnc(Nc4ccc(CCN5CCOCC5)cc4)n3)c2c1` ? Met

In the record for `Cc1cccc(Nc2nccc(-c3c[nH]c4ncccc34)n2)c1` , is IC50 less than 0.1 µM? Not met

Please let me know if `CNCCc1ccc(Nc2nccc(-c3c[nH]c4ncccc34)n2)c(Cl)c1` shows IC50 below 0.1 µM. Met

Does the reported IC50 of the following compound sit strictly below 0.1 µM? `CC(=O)N1CCC(Nc2nccc(-c3c[nH]c4ncccc34)n2)CC1` Not met

###

Target: Aurora-A (Mus musculus)
Construct: made in house; host or cells: sf9 insect cells
Sequence (P97477 whole entry): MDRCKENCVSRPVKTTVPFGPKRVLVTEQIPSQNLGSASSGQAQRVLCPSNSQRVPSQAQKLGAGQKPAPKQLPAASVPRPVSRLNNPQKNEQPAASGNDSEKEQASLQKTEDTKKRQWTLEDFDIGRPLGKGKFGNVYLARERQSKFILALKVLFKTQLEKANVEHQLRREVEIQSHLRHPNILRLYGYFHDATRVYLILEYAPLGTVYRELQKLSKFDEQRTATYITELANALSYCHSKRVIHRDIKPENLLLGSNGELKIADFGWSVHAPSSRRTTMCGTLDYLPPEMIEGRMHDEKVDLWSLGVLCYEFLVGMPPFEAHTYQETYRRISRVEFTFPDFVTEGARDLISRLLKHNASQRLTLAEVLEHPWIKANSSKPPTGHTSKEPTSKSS
Experiment: Aurora-A Screening Assay
Format: biochemical, murine
Conditions: 33P-γ-ATP incorporation, 10 μM ATP
measurement name: IC50 (µM)
Output spec: scalar in µM, unitless text.

Sample answers from the record:
For record `CCNCCc1ccc(Nc2nccc(-c3c[nH]c4ncccc34)n2)cc1` the listed IC50 is 0.157

The molecule listed as `c1cnc2[nH]cc(-c3ccnc(NCC4CCCCC4)n3)c2c1` shows IC50 equal to 0.636

Pending molecule:
Reported IC50 ( `COc1ccc(Nc2nccc(-c3c[nH]c4ncccc34)n2)cc1` ) = 0.134
